- TEST DESCRIPTION: Cytotoxicity against African green monkey Vero E6 cells
- Type: cell-based
- TEST PARAMETERS: chlorocebus sabaeus
METRIC NAME: CC50

Some entries whose results are on file:
Exam item: GET /values?readout=CC50&item= Nc1ncc(F)c2c1ncn2[C@@H]1C[C@H](CO)[C@@H](O)[C@H]1O
Marked response: > 100 µM

Exam item: Similarly, Nc1ncc(F)c2c1ncn2[C@@H]1C[C@H](CCO)[C@@H](O)[C@H]1O ?
Marked response: > 100 µM

Now for a further compound.
Exam item: GET /values?readout=CC50&item= Nc1ncc(F)c2c1ncn2[C@@H]1C[C@H](O)[C@@H](O)[C@H]1O
Marked response: > 100 µM
